Entry source: the OPERA property sets (Mansouri et al. 2018)

Collected logP values appear next to each entry.
recorded-metric: logP

1) CCc1cnccn1 0.69
2) N#Cc1cnccn1 -0.01
3) CNc1ccccn1 1.12
4) COc1cnccn1 0.73
5) CN(C)C(=O)c1cnccn1 -0.8
6) Clc1cnccn1 0.7
7) CSc1cnccn1 1.17
8) CCOC(=O)c1cnccn1 0.28
9) CNc1cnccn1 0.56
10) CN(C)c1ccccn1 1.65
11) CCOc1ccccn1 1.81
12) CN(C)C(=O)c1ccccn1 -0.45
13) CC(=O)Nc1cnccn1 -0.03
14) COC(=O)c1cnccn1 -0.23
15) Fc1ccccn1 0.84
16) CN(C)c1cnccn1 0.93
17) CSc1ccccn1 1.71
18) Fc1cnccn1 0.29
19) CCOc1cnccn1 1.28
20) CCCOc1cnccn1 1.84
21) CC(=O)c1cnccn1 0.2
22) CCCOc1ccccn1 2.38
23) COc1ccccn1 1.34
